- Assay name: Metabolic stability in P-gp-knockout rat plasma assessed as unmetabolized drug level at 330 MBq after 30 min by HPLC chromatogram analysis
- Assay type: ADME, cell-free
- Run parameters: read-out: Stability
Quantity measured: remaining at 0.5 h (%)
Report as a plain number; the unit % is understood.

What value of measured remaining at 0.5 h is listed for "Cc1ncc(OC[C@@]2(c3cccc(F)c3)C[C@H]2C(=O)Nc2ccc(F)cn2)c(CO[11CH3])n1" ? 12

----------
- Assay name: Ratio of flux ratio in pig LLC cells expressing MDR1 to flux ratio on pig LLC-PK1 cells
- Type: ADME, cell-based, Sus scrofa
For each record, check the reported Ratio: if it is below 2 write rule met, else write rule not met.

Solved cases below.
COCc1nc(C)ncc1OC[C@@]1(c2cccc(F)c2)C[C@H]1C(=O)Nc1ccc(F)cn1 :: rule not met
COc1nc(NC(=O)[C@@H]2C[C@@]2(COc2cnc(C)nc2C)c2cccc(F)c2)ccc1F :: rule met
COc1cc(NC(=O)[C@@H]2C[C@@]2(COc2cnc(C)nc2C)c2cccc(F)c2)ncc1F :: rule not met
Cc1ncc(OC[C@@]2(c3cccc(F)c3)C[C@H]2C(=O)Nc2ccc(C#N)cn2)c(C)n1 :: rule met

Now consider the entry below.
Quick check: Ratio of "COc1ccc([C@]2(COc3cnc(C)nc3C)C[C@H]2C(=O)Nc2ccc(F)cn2)cc1F" under 2? rule met
